efflux ratio at 2 h values, listed per item
- run.description: in vitro
- test.settings: human, Caco-2
- Description: Efflux ratio of permeability in human Caco2 cells measured up to 2 hrs by LC-MS/MS analysis or scintillation counting method
I only need the number, thanks.

Please review the entries below; each comes with its answer.
>  <compound>
Cc1ccc(NC(=O)c2ccc(C(N)=O)cc2)cc1Nc1nccc(-c2cccnc2)n1

>  <efflux ratio at 2 h>
8.1

$$$$
>  <compound>
CN1CCCOP1(=O)c1ccc(C(F)(F)F)cc1 (stereo not given)

>  <efflux ratio at 2 h>
0.5

$$$$
>  <compound>
O=P1(c2ccc(C(F)(F)F)cc2)CCOCC1

>  <efflux ratio at 2 h>
0.7

$$$$
>  <compound>
CC(C)(C)NC(=O)c1ccc(C(F)(F)F)cc1

>  <efflux ratio at 2 h>
0.7

$$$$

Let me know recorded efflux ratio at 2 h for CCOP(C)(=O)c1ccncc1 (stereo not given) , thanks.
0.6

Let me know recorded efflux ratio at 2 h for O=S1(c2ccc(C(F)(F)F)cc2)=NCCCC1 (stereo not given) , thanks.
0.7

Let me know recorded efflux ratio at 2 h for CN=S(C)(=O)c1ccc(C(F)(F)F)cc1 (stereo not given) , thanks.
1

Let me know recorded efflux ratio at 2 h for CCP(=O)(CC)c1ccncc1 , thanks.
0.6
